system: Plasmodium falciparum; experiment: Calibr Malaria Delayed Death Assay SOP; format: functional, organism-based; set-up: scale not given: in the data most compounds retested in dose-response had high values; details: concentration 4.99e-06 (unit not given; other assays of the set use mol/L)
The campaign covered roughly 38,000 compounds. About 1,200 (3.2%) showed an effect of 50% or more. The median lay at about -58%. This is one part of a sample in which strong results are shown more often than they occur.
reported_metric: Percent Effect (%)
Answer in %, number only, no unit symbol.

Please review the following examples before continuing.
O=C(O)C(F)(F)F.O=C(c1cnccn1)N1C[C@@H](OCc2ccncc2)[C@@H]2OCCC[C@@H]21 = -88.13
O=C(O)C1(Cc2ccccc2F)CCCN(c2ncnc3[nH]ccc23)C1 (stereo not given) = -54.27
CC(O)(CNC(=O)c1cccnc1-n1cccn1)c1ccco1 (stereo not given) = -10.35
O=C1CC(NCc2cccc(O)c2)CN1CCc1cccc(Cl)c1 (stereo not given) = -115.5
CC(C)CN1C(=O)CC[C@]12CC[C@@H](NC(=O)NCc1cccnc1)CC2.O=C(O)C(F)(F)F = -179.5
CCc1nnc(CN2CCN(c3cccc(OC)c3)C(=O)C2)o1 = -165.5
CCOC(=O)[C@H]1[C@@H](O)C(=O)N(C)C12CCN(C(=O)C(CC)CC)CC2 = -15.32
CCOC(=O)[C@H]1[C@@H](O)C(=O)N(C)C12CCN(S(=O)(=O)CC)CC2 = -82.82
Clc1cccc(CNC2CCN(CCc3ccncc3)CC2)c1 = 91.89

Prompt: State its Percent Effect on Plasmodium falciparum: "Cc1nc[nH]c1CN(Cc1ccccc1)Cc1nccs1"
Completion: 74.62

---

system: Plasmodium falciparum; experiment: Calibr Malaria Delayed Death Assay SOP; type: functional, organism-based; parameters: scale not given: in the data most compounds retested in dose-response had high values; settings: concentration 4.99e-06 (unit not given; other assays of the set use mol/L)
The whole screen tested about 38,000 compounds, of which about 1,200 (3.2%) showed an effect of 50% or more. The median lay at about -58%. What follows is part of a selection rich in strong results, with near analogues and random picks from the rest.
reported_metric: Percent Effect (%)
Use % as the unit, but write only the number.

Known results for molecules:
COc1ccc(C)cc1NC(=O)Nc1cnc(N2CCOCC2)nc1 = 6.993
Cc1nc(CCN)cc(N2CCOc3ccc(Cl)cc3C2)n1 = 34.3
O=C([C@@H]1CCO[C@@H]2CCN(CC3CC3)C[C@H]21)N1CCCCO1 = -73.92
Cc1nc(C2CCN(C)CC2)cc(N2CCOc3ccc(Cl)cc3C2)n1 = 69.39
Cc1cc(F)cc2c(N3CCC(S(N)(=O)=O)CC3)c(C#N)cnc12 = -75.95

Prompt: # returns recorded Percent Effect (system: Plasmodium falciparum) for "Cc1cc(C)cc(NC(=O)c2cnc(N3CCN(C)CC3)nc2C)c1"
Completion: -105.5

Prompt: Requested read-out Percent Effect, target or system Plasmodium falciparum, entry "COc1ccc(NC(=O)Cn2nc(C)ccc2=O)cc1OC"
Completion: -36.97

Prompt: Kindly state the measured Percent Effect obtained for "COc1cc(NC(=O)c2ccc(Cl)cc2F)c(C(=O)N(C)C)cc1OC" with Plasmodium falciparum.
Completion: -107.3

Prompt: Please provide the recorded Percent Effect for Cc1ccc(C(=O)N2CCCCC2CN(C)C)cc1 (stereo not given) , tested on Plasmodium falciparum.
Completion: -61.09

Prompt: Tell me reported Percent Effect for "Cc1ccc(CN2CC[C@@H]3[C@@H](CO[C@H]3CN3CCN(C)CC3)C2)cc1.O=C(O)C(F)(F)F.O=C(O)C(F)(F)F.O=C(O)C(F)(F)F" , tested with Plasmodium falciparum.
Completion: -1.718

Prompt: Param readout= Percent Effect; system= Plasmodium falciparum; entry= "COc1ccc(NC(=O)Cn2nc(C)c(C(C)=O)c2C)cc1" ; returns value.
Completion: 89.56

Prompt: Query for Plasmodium falciparum: what Percent Effect does the record show for "CCCn1nccc1C(=O)Nc1nc(C)c(C)s1" ?
Completion: -95.22

Prompt: GET /values?readout=Percent Effect&system=Plasmodium falciparum&item= "COc1ccc(OCCN(C)C(=O)c2ccc(OC)cc2O)cc1"
Completion: -28.6

---

system: Plasmodium falciparum; test: Calibr Malaria Delayed Death Assay SOP; assay type: functional, organism-based; design: scale not given: in the data most compounds retested in dose-response had high values; conditions: concentration 4.99e-06 (unit not given; other assays of the set use mol/L)
Screen size: about 38,000 compounds; about 1,200 (3.2%) showed an effect of 50% or more. The median lay at about -58%. Shown is part of a subset that was picked to be rich in strong results.
reported_metric: Percent Effect (%)
Form entry: value (%) — number only.

Worked examples follow.
CCN(CC1CN(Cc2ncc[nH]2)CCO1)c1cccnn1 (stereo not given) = -7.517
CN(Cc1ccco1)[C@@H]1CN(Cc2ccncc2)C[C@@H]2CCCO[C@@H]21.O=C(O)C(F)(F)F.O=C(O)C(F)(F)F.O=C(O)C(F)(F)F = 7.341
c1ccc(C2CN(C3CC3)CC3(CCN(Cc4cscn4)CC3)C2)cc1 (stereo not given) = 80.59
Cc1cc(C)cc(NC(=O)CC2CN(Cc3ccccc3)CCO2)c1 (stereo not given) = -128.2
CN(Cc1ccco1)[C@@H]1CN(Cc2cccnc2)[C@@H]2CCCO[C@H]12.O=C(O)C(F)(F)F.O=C(O)C(F)(F)F.O=C(O)C(F)(F)F = -47.89

Prompt: Percent Effect lookup needed for CCS(=O)(=O)CCNC(=O)NC(C)c1cc(C)sc1C (stereo not given) , thanks.
Completion: -122.2

Prompt: Dear colleague, I am looking for the recorded Percent Effect of the following molecule: "CN(Cc1ccco1)[C@@H]1CN(Cc2nccs2)C[C@@H]2CCCO[C@@H]21.O=C(O)C(F)(F)F.O=C(O)C(F)(F)F"
Completion: 29.14

Prompt: Which Percent Effect value is on record for "CC(C)NC(=O)c1nnn(-c2ccccc2)c1C1CC1" ?
Completion: -103.7

Prompt: Using the record for "CN(Cc1ccco1)[C@@H]1CN(CC2CCOCC2)C[C@@H]2CCCO[C@@H]21.O=C(O)C(F)(F)F.O=C(O)C(F)(F)F" , report its Percent Effect.
Completion: 11.5

Prompt: Returns the measured Percent Effect for the input molecule. Input: "CCc1cnc(C)nc1NCCN1CCCCCC1"
Completion: 42.39

Prompt: May I ask what Percent Effect has been recorded for "CN(Cc1ccco1)[C@@H]1CN(Cc2cccs2)C[C@@H]2CCCO[C@@H]21.O=C(O)C(F)(F)F.O=C(O)C(F)(F)F" ?
Completion: 64.28

---

system: Plasmodium falciparum; assay: Calibr Malaria Delayed Death Assay SOP; format: functional, organism-based; set-up: scale not given: in the data most compounds retested in dose-response had high values; details: concentration 4.99e-06 (unit not given; other assays of the set use mol/L)
Screen size: about 38,000 compounds; about 1,200 (3.2%) showed an effect of 50% or more. The median lay at about -58%. The sample holds strong results, similar compounds and a random draw of the others, so the mix is not that of the screen.
reported_metric: Percent Effect (%)
Just the number please, in %, no unit attached.

Field: example entries. Status: answers known.
O=C(O)C(F)(F)F.O=C(O)C(F)(F)F.c1cc(CN2CCC3(CC2)COC(COCC2CC2)C3)ccn1 (configuration not stated) = -17.94
O=C(CCNS(=O)(=O)c1ccccc1F)NCc1ccoc1 = -33.2
Cc1ccc(C2(CN(C)Cc3snnc3C)CCNCC2)nc1 = -24.27
Cn1ccnc1CN1CCC2(CC1)CN(c1ccccn1)CCO2.O=C(O)C(F)(F)F.O=C(O)C(F)(F)F = -263.3

Prompt: Form field: reported Percent Effect of "Cc1ccc(C2(CN(C)Cc3c(C)nn(C)c3C)CCNCC2)nc1"
Completion: 16.34

Prompt: // lookup Percent Effect for CC1(NC(=O)Cc2csc(-c3cccc(Cl)c3)n2)CCS(=O)(=O)C1 (configuration not stated)
Completion: -114.6

---

system: Plasmodium falciparum; assay: Calibr Malaria Delayed Death Assay SOP; format: functional, organism-based; parameters: scale not given: in the data most compounds retested in dose-response had high values; details: concentration 4.99e-06 (unit not given; other assays of the set use mol/L)
The whole screen tested about 38,000 compounds, of which about 1,200 (3.2%) showed an effect of 50% or more. The median lay at about -58%. This is one part of a sample in which strong results are shown more often than they occur.
Consider the cut-off -20%. If the recorded Percent Effect is strictly smaller, the label is true; if not, the label is false.

Prompt: Dear reviewer, please state whether "Cc1ccc(N2CCC3(CCN(Cc4ccccn4)CC3)CC2)nn1" has Percent Effect strictly beneath -20%.
Completion: true

Prompt: Percent Effect under -20%? Item: "Cc1cccc(N2CCC3(CCN(Cc4ccccn4)CC3)CC2)n1.O=C(O)C(F)(F)F.O=C(O)C(F)(F)F"
Completion: false

Prompt: Answer whether the compound "COc1ccccc1C(=O)Nc1c(F)c(C(=O)N2CCCC2)nn1C" has Percent Effect strictly less than -20%
Completion: true

Prompt: Find out if reported Percent Effect for O=C(O)C(F)(F)F.O=C(O)C(F)(F)F.c1ccc(CN2CCCC3(CCN(CC4CCCO4)CC3)C2)nc1 (stereo not given) is less than -20%
Completion: false

Prompt: Does this compound meet the criterion Percent Effect < -20%? "Cn1cc(CN2CCC3(CCCN(Cc4ccccn4)C3)CC2)cn1"
Completion: true
